# Organism: Oryctolagus cuniculus
# Type: functional, Eye
# Description: In vivo fall of IOP of normotensive rabbits after treatment with 1 drop(50 microL) of 2% solution of CA inhibitor with pH value 5.5 into the eye at 90 min.
Reported values of Delta IOP for individual entries
Just the number please, in mmHg, no unit attached.

Cl.NS(=O)(=O)c1ccc(CCN2C(=O)c3cccnc3C2=O)cc1 :: 4.2

Qu. # return recorded Delta IOP for input Cl.NS(=O)(=O)c1nc2ccc(OCCONC(=O)c3cccc(C(=O)O)n3)cc2s1
Ans. 9

Qu. Indicate its recorded Delta IOP; the compound in question is CCN(C(=O)c1cccc(C(=O)O)n1)C1CC(C)S(=O)(=O)c2sc(S(N)(=O)=O)cc21.Cl (stereo unspecified)
Ans. 9.1

Qu. Give reported Delta IOP value for CCN(C(=O)c1cccnc1C(=O)O)C1CC(C)S(=O)(=O)c2sc(S(N)(=O)=O)cc21.CCN(C(=O)c1ncccc1C(=O)O)C1CC(C)S(=O)(=O)c2sc(S(N)(=O)=O)cc21.Cl (stereo unspecified)
Ans. 3.5

Qu. Provide Delta IOP value for the following compound: Cl.NS(=O)(=O)c1ccc(NC(=O)c2cccc(C(=O)O)n2)c(F)c1
Ans. 3.9

Qu. For the compound Cl.NS(=O)(=O)c1nnc(N2C(=O)c3cccnc3C2=O)s1 , give its reported Delta IOP.
Ans. 8.1

Ref: ChEMBL document CHEMBL1132301
